TARGET SYSTEM: CB1 (mutant) (Homo sapiens, UniProt P21554)
Sequence (P21554 1-417, change not shown): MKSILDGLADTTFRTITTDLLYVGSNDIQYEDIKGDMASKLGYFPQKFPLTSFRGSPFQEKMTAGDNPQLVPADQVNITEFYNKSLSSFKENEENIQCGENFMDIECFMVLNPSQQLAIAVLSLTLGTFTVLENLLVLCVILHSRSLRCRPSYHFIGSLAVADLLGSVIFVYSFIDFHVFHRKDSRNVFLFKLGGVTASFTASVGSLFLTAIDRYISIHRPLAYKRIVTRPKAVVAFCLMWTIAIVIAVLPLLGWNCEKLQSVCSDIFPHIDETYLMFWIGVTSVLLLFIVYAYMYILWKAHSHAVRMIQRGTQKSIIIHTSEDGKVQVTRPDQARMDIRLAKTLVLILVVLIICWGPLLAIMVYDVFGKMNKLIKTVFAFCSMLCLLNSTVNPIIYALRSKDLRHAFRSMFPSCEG
EXPERIMENT: R-SAT functional receptor assay, CB1 (mutant, truncated after amino acid 417)
Format: cell-based
DETAILS: Appendix A; R-SAT CB1; receptor form (mutant or wild-type) not stated; read-out: pIC50 (converted)
ASSAY READOUT: IC50 (nM)
Entry rule: numbers only, all in nM.

Some solved cases for reference:
CCN(CCNC(=O)c1ccc2c(c1)N=C(c1ccccc1)c1ccccc1S2)c1ccccc1 [drawing 777]: 10
O=C(NCc1ccco1)c1ccc2c(c1)N=C(c1ccc(Cl)c(Cl)c1)c1ccccc1S2 [drawing 691]: 6.31
O=C(NCc1cccnc1)c1ccc2c(c1)N=C(c1ccc(Br)cc1)c1ccccc1S2 [drawing 1007]: 25.1
CCONC(=O)c1ccc2c(c1)N=C(c1ccc(Cl)cc1Cl)c1ccccc1S2: 3160
O=C(NCCc1ccccc1)c1ccc2c(c1)N=C(c1ccccc1)c1ccccc1S2 [drawing 1023]: 25.1
Cc1ccsc1C1=Nc2cc(C(=O)NC3CCCCC3)ccc2Sc2ccccc21 [drawing 572]: 50.1
CCCC1=Nc2cc(C(=O)NCCC3=CCCCC3)ccc2Sc2ccccc21: 50.1
O=C(NCc1cccnc1)c1ccc2c(c1)N=C(c1ccccc1F)c1ccccc1S2 [drawing 1035]: 25.1

### Prompt Which IC50 is listed for CC(C)CNC(=O)c1ccc2c(c1)N=C(c1ccc(Cl)s1)c1ccc(Cl)cc1S2 [drawing 983] ?
### Response 25.1
